system: Wheat kernels; assay: Germination rate of wheat in combination with fungicides (greenhouse); type: in vivo; details: fungicides 25 g/dt in NMP, compound A1 0.1 mg/ha, soil, greenhouse 15° C., 70% humidity, 7 days, solvent control 69
quantity-measured: % germination

1. N#Cc1c[nH]cc1-c1cccc2c1OC(F)(F)O2 ... 23%
2. CC(C)(C)C(O)(CCc1ccc(Cl)cc1)Cn1cncn1 (stereo not shown) ... 21%
3. Cc1nn(C)c(F)c1C(=O)Nc1ccccc1C(C)CC(C)C (stereo not shown) ... 47%
4. CO/N=C(/C1=NOCCO1)c1ccccc1Oc1ncnc(Oc2ccccc2Cl)c1F ... 4%
